Each recorded value in this set is attributed to patent US20090280982A1.

# System: Green Peach Aphid (Myzus persicae)
# recordedConditions: in vivo
quantityKind: mortality [%] at 100 ppm
Field: value (include unit after the number)

Please review the following examples before continuing.
molecule	mortality [%] at 100 ppm
O=S(=O)(NCc1ccnc2ccccc12)c1ccc(-c2ccc(OC(F)(F)F)cc2)c(F)c1	90%
O=S(=O)(NCc1ccnc2ccccc12)c1ccc(-c2ccc(OC(F)(F)F)cc2)cc1 [Compound C1, reference compound]	0%
O=S(=O)(NCc1ccnc2ccccc12)c1ccc(-c2ccc(C(F)(F)F)cc2)c(Cl)c1	90%

Measured mortality [%] at 100 ppm, O=S(=O)(NCc1ccnc2ccccc12)c1ccc(-c2ccc(C(F)(F)F)cc2)cc1 [Compound C2, reference compound] : 60%

----------
# Tested on: Green Peach Aphid (Myzus persicae)
# recordedConditions: in vivo
The reader will find reported mortality [%] at 300 ppm values listed item by item below.

Please review the following examples before continuing.
compound	mortality [%] at 300 ppm
O=S(=O)(NCc1ccnc2ccccc12)c1ccc(-c2ccc(OC(F)(F)F)cc2)c(F)c1	90%
O=S(=O)(NCc1ccnc2ccccc12)c1ccc(-c2ccc(C(F)(F)F)cc2)c(Cl)c1	100%
O=S(=O)(NCc1ccnc2ccccc12)c1ccc(-c2ccc(C(F)(F)F)cc2)cc1 [Compound C2, reference compound]	100%

Here is the next item to consider.
Measured mortality [%] at 300 ppm, O=S(=O)(NCc1ccnc2ccccc12)c1ccc(-c2ccc(OC(F)(F)F)cc2)cc1 [Compound C1, reference compound] : 60%
